Ref: the supplement of paper PMC11451515

Measured AUC of viability dose-response curve of individual entries
# Tested on: NOMO1
# test: AUC of viability dose-response curve (% viability x log10 dose units); higher = less sensitive
# condition: HPLM + 10% dialyzed FBS; 48 h

# compound, AUC of viability dose-response curve
measured = [
    ("CC(C)(C)c1nc(-c2cccc(N[S+](=O)([O-])c3c(F)cccc3F)c2F)c(-c2ccnc(N)n2)s1", 423),
    ("Cc1cc(OCCC[S+](C)(=O)[O-])cc(C)c1-c1cccc(COc2ccc3c(c2)OC[C@H]3CC(=O)O)c1", 466),
    ("COc1cc(Nc2c(C#N)cnc3cc(OCCCN4CCN(C)CC4)c(OC)cc23)c(Cl)cc1Cl", 370),
    ("N[C@H]2CN(CC12CC1)c3c(F)cc4c(c3Cl)[N@@](C=C(C4=O)C(=O)O)C5C[C@H]5F (some centres undefined)", 420),
]
